Assign Inhibition % to each entry below.
Target: Parkinson's disease protein 7 (PARK7/DJ1) (human)
Sequence (Q99497 whole entry, looked up): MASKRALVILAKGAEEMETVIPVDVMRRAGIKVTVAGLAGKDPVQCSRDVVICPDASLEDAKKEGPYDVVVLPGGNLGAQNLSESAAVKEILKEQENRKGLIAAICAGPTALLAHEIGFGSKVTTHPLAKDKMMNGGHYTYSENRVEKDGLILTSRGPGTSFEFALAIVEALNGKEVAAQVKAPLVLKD
Assay: primary screen, percent inhibition; read as competition with a fluorescent probe by fluorescence polarization; higher = more effect of the substance
Settings: 100 µM
The whole screen tested about 7,900 compounds, of which about 400 (5.1%) showed an effect of 50% or more. This excerpt belongs to a sample that is enriched for strong results.
Express the result in % but write the number alone.

Inhibition % for "COc1cc(C=C(C#N)C(=O)NC(C)C)cc(Cl)c1O" ?
-0.272

Now the same for "CC1=C(C)CN(c2nccnc2C#N)CC1"
26

Same read-out for "CC1(C)OB(Cc2cc(F)cc(F)c2)OC1(C)C" ?
6.97

Then this molecule: "Cc1csc(NC(=O)CCN2C(=O)CCC2=O)n1"
5.08

Try the molecule "N#Cc1cc(F)ccn1"
5.03

Let us now turn to O=C1N(c2ccccc2)C(c2ccco2)C1(F)F (centres unmarked)
3.32

Repeat with C=CC(=O)N1CCCC1c1cccc2c1OCCO2 (centres unmarked)
4.1

Another: C=CC(=O)N1CCN2CCOCC2C1 (centres unmarked)
8.35

Also, "Cc1nc2ccccc2nc1S" please.
2.7

Also "CC(=O)c1ccc(F)c(B2OC(C)(C)C(C)(C)O2)c1" , if possible.
5.97

// same read-out, input: "N#Cc1ccnc(Cl)n1"
3.95

// same read-out, input: "Cc1ccc(NC(=O)CCl)cc1F"
48.3

Field entry: "Sc1nc2ccccc2nc1S"
8.25

What about this molecule? CC1CN(CC2OCCO2)CCC1c1ccccc1 (centres unmarked)
8.86
